SYSTEM_UNDER_TEST: T1, human CD3 on CD3+ Jurkat cells (human, UniProt P07766 23-207)
T1 construct: whole, on cells; The whole CD3 complex stands on the cells; also called Human CD3 Jurkat; human CD3+ Jurkat cells
ASSAY_EXPLANATION: flow cytometry, yeast-produced IgG 100 nM on CD3+ Jurkat cells, pH 7.4
Entries and their measured NCB follow.
Would you mind answering with just the numeric figure?

Please review the entries below; each comes with its answer.
So what's the measured NCB for this one? ADI-74966 (Antibody No. 4), human IgG1 (antibody, V domains shown, Tested as human IgG1 (yeast-produced aglycosylated, or CHO-produced)) VH: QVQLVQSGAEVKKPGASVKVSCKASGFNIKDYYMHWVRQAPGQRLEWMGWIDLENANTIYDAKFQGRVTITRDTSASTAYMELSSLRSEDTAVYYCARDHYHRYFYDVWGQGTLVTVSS VL: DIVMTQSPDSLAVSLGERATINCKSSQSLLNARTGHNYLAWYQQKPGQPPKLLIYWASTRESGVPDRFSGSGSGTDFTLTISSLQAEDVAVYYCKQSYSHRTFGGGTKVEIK 0

Reported NCB for ADI-79847 (Antibody No. 13), human IgG1 (antibody, V domains shown, Tested as yeast-produced aglycosylated human IgG1) VH: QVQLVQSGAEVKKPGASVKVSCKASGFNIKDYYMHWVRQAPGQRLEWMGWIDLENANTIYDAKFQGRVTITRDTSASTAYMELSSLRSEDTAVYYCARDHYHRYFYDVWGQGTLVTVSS VL: DIVMTQSPDSLAVSLGERATINCKSSQSLLNARTGHNYLAWYQQKPGQPPKLLIYWASTRESGVPDRFSGSGSGTDFTLTISSLQAEDVAVYYCKQSHSRRTFGGGTKVEIK : what is it? 0

New cases:
Record request: NCB value, item ADI-79848 (Antibody No. 9), human IgG1 (antibody, V domains shown, Tested as yeast-produced aglycosylated human IgG1) VH: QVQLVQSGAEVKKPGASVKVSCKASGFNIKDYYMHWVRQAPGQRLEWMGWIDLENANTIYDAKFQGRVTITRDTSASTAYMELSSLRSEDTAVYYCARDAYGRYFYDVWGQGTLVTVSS VL: DIVMTQSPDSLAVSLGERATINCKSSQSLLNARTGHNYLAWYQQKPGQPPKLLIYWASTRESGVPDRFSGSGSGTDFTLTISSLQAEDVAVYYCKQSYSRRTFGGGTKVEIK 136
